FYI, the data here is from patent US12338251B2.

Assay: Solubility measurement (HPLC)
Format: physicochemical
Conditions: pH 7.0 buffer solution (20 mM), aqueous buffer, thermodynamic from solid; pH 7.0 buffer (20 mM), 25° C.
Reported solubility at 30 min is given for each of the following compounds.
recordedMetric: solubility at 30 min (µg/mL)

• CC(=O)NCC(=O)Nc1ncc2cc1O[C@H](C)c1cc(F)ccc1C(=O)N(C)Cc1nn(C)c(C#N)c1-2 = 772
• C[C@H]1Oc2cc(cnc2N)-c2c(nn(C)c2C#N)CN(C)C(=O)c2ccc(F)cc21 [Lorlatinib, reference compound] = 29

* * *

Assay: Stability test for one month, purity by HPLC
Type: physicochemical
Conditions: HPLC purity after 30 days at 0° C.
Reported Day 30 at 0° C. (purity) is given for each of the following compounds.
recordedMetric: Day 30 at 0° C. (purity) (%)

* COC(=O)NCC(=O)Nc1ncc2cc1O[C@H](C)c1cc(F)ccc1C(=O)N(C)Cc1nn(C)c(C#N)c1-2 [Compound 4] | 97.13
* C[C@H]1Oc2cc(cnc2NC(=O)CN)-c2c(nn(C)c2C#N)CN(C)C(=O)c2ccc(F)cc21 [Compound 2, reference compound] | 92.58
* CCOC(=O)NCC(=O)Nc1ncc2cc1O[C@H](C)c1cc(F)ccc1C(=O)N(C)Cc1nn(C)c(C#N)c1-2 [Compound 5] | 99.01
* CC(=O)NCC(=O)Nc1ncc2cc1O[C@H](C)c1cc(F)ccc1C(=O)N(C)Cc1nn(C)c(C#N)c1-2 [Compound 3] | 99.18

* * *

Assay: Stability test for one month, purity by HPLC
Type: physicochemical
Conditions: HPLC purity after 30 days at 25° C.
recordedMetric: Day 30 at 25° C. (purity) (%)

- CCOC(=O)NCC(=O)Nc1ncc2cc1O[C@H](C)c1cc(F)ccc1C(=O)N(C)Cc1nn(C)c(C#N)c1-2: 99.05
- COC(=O)NCC(=O)Nc1ncc2cc1O[C@H](C)c1cc(F)ccc1C(=O)N(C)Cc1nn(C)c(C#N)c1-2: 97.25
- C[C@H]1Oc2cc(cnc2NC(=O)CN)-c2c(nn(C)c2C#N)CN(C)C(=O)c2ccc(F)cc21 [Compound 2, reference compound]: 86.14
- CC(=O)NCC(=O)Nc1ncc2cc1O[C@H](C)c1cc(F)ccc1C(=O)N(C)Cc1nn(C)c(C#N)c1-2: 99.16

* * *

Test: Stability test for one month, purity by HPLC
Type: physicochemical
Settings: HPLC purity, baseline of stability test
Reported Day 0 (purity) is given for each of the following molecules.
recordedMetric: Day 0 (purity)

- COC(=O)NCC(=O)Nc1ncc2cc1O[C@H](C)c1cc(F)ccc1C(=O)N(C)Cc1nn(C)c(C#N)c1-2: 97.23%
- CCOC(=O)NCC(=O)Nc1ncc2cc1O[C@H](C)c1cc(F)ccc1C(=O)N(C)Cc1nn(C)c(C#N)c1-2: 99.05%
- CC(=O)NCC(=O)Nc1ncc2cc1O[C@H](C)c1cc(F)ccc1C(=O)N(C)Cc1nn(C)c(C#N)c1-2: 99.24%
- C[C@H]1Oc2cc(cnc2NC(=O)CN)-c2c(nn(C)c2C#N)CN(C)C(=O)c2ccc(F)cc21 [Compound 2, reference compound]: 97.28%

* * *

Target: UniProtKB P08684
Sequence (P08684 whole entry): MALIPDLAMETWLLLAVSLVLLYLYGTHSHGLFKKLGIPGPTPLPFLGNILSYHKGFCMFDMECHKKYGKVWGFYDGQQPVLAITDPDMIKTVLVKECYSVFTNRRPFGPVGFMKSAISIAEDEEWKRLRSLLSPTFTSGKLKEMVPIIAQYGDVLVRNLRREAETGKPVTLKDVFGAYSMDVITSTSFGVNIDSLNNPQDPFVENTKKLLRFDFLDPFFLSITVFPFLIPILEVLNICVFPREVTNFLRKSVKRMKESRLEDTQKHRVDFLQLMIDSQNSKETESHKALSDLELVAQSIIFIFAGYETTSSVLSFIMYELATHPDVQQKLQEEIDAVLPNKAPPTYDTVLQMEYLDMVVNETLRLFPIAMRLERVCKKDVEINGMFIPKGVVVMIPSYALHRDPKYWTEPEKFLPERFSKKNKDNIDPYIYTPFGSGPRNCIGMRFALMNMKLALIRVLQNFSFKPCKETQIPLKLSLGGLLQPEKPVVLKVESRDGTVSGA
Test: P450 3A4 assay in human liver microsomes (CYP inhibition)
Format: in vitro ADME
Conditions: testosterone probe substrate
pIC50: −log10 of the molar value.
recordedMetric: pIC50

* C[C@H]1Oc2cc(cnc2NC(=O)CN)-c2c(nn(C)c2C#N)CN(C)C(=O)c2ccc(F)cc21 [Compound 2, reference compound] | 5.00
